- System: isolated guinea pig gallbladder
- experimental details: Functional activity in isolated guinea pig gallbladder preparation
- Type: cell-based
- measurement parameters: Cavia porcellus, 3 × 10^-5 M test compound; expressed as % CCK-induced maximal response; read-out: % Contraction (3 × 10^-5 M)
- Procedure: 3. GUINEA PIG GALL BLADDER ASSAY Gallbladders are removed from guinea pigs sacrificed by cervical dislocation. The isolated gallbladders are cleaned of adherent connective tissue and cut into two rings from each animal (2-4 mm in length). The rings are subsequently suspended in organ chambers containing a physiological salt solution (118.4 mM NaCl, 4.7 mM KCl, 1.2 mM MgSO4, 2.5 mM CaCl2, 1.2 mM KH2 […], 25 mM NaHCO3, 11.1 mM dextrose). […] Responses are then recorded on a polygraph (Grass, Model 7E). […]
endpoint: activation at 30 µM (%)
A number alone suffices; assume %.

[[record]]
compound = "CC(=O)n1nc(CC2C(=O)N(CC(=O)N(c3ccc(F)cc3)C(C)C)c3ccccc3N(c3ccccc3)C2=O)c2ccc(F)cc21 (stereo not drawn) [Example 64]"
endpoint = "activation at 30 µM"
measured_value = 98

[[record]]
compound = "COc1ccc(N(C(=O)CN2C(=O)C(Cc3n[nH]c4ccccc34)C(=O)N(c3ccccc3)c3ccccc32)C2CCCC2)cc1 (stereo not drawn) [Example 62]"
endpoint = "activation at 30 µM"
measured_value = 86


We next turn to a different compound, shown below.
I have this compound here, CCC1(CC(=O)Nc2ccccc2)C(=O)N(CC(=O)N(c2ccccc2)C(C)C)c2ccccc2N(c2ccccc2)C1=O (stereo not drawn) [Example 16] , and I need its recorded activation at 30 µM.
54

###

Let's look at some compounds and their measured activation at 1 µM.
- System: isolated guinea pig gallbladder
- experimental details: Functional activity in isolated guinea pig gallbladder preparation
- Type: cell-based
- measurement parameters: Cavia porcellus, 1 × 10^-6 M test compound; expressed as % CCK-induced maximal response; read-out: %Contraction (1 × 10^-6 M)
Hi, when you answer, please include the unit after the number. Thanks!

[[record]]
compound = "COc1ccc(N(C(=O)CN2C(=O)C(C)(CC(=O)Nc3ccccc3)C(=O)N(c3cccnc3)c3ccccc32)C(C)C)cc1 (stereo not shown) [Example 84]"
endpoint = "activation at 1 µM"
measured_value = "96%"

[[record]]
compound = "COc1ccc(N(C(=O)CN2C(=O)C(Cc3n[nH]c4c3CCCC4)C(=O)N(c3ccccc3)c3ccccc32)C(C)C)cc1 (stereo not shown) [Example 51]"
endpoint = "activation at 1 µM"
measured_value = "82%"

[[record]]
compound = "COc1ccc(N(C(=O)CN2C(=O)C(COCc3ccccc3)C(=O)N(c3ccccc3)c3ccccc32)C(C)C)cc1 (stereo not shown) [Example 82]"
endpoint = "activation at 1 µM"
measured_value = "69%"

[[record]]
compound = "O=C1C(Cc2n[nH]c3ccccc23)C(=O)N(c2ccccc2)c2ccccc2N1CC(=O)N(c1ccccc1)C1CC1 (stereo not shown) [Example 61]"
endpoint = "activation at 1 µM"
measured_value = "63%"

[[record]]
compound = "COc1ccc(N(C(=O)CN2C(=O)C(C)(Cc3ccc4ccccc4c3)C(=O)N(c3ccccc3)c3ccccc32)C(C)C)cc1 (stereo not shown) [Example 38]"
endpoint = "activation at 1 µM"
measured_value = "30%"

[[record]]
compound = "CC(C)N(C(=O)CN1C(=O)C(C)(Cc2noc(-c3ccccc3)n2)C(=O)N(c2ccccc2)c2ccccc21)c1ccccc1 (stereo not shown) [Example 10]"
endpoint = "activation at 1 µM"
measured_value = "7%"


Any idea what its activation at 1 µM is? The compound is COc1ccccc1N(C(=O)CN1C(=O)C(Cc2n[nH]c3ccccc23)C(=O)N(c2ccccc2)c2ccccc21)C(C)C (stereo not shown) [Example 78]
43%

Taken from patent US5859007A.
